Measured pKi, listed per entry for reference.
# assayed target: Muscarinic acetylcholine receptor M2 (Rattus norvegicus, UniProt P10980)
# assay name: Binding affinity at [3H]QNB radiolabeled muscarinic M2 receptor in rat cortex.
# Format: tissue-based
Scale for pKi: -log10 of concentration given in mol/L; no unit attached.

Sample records with pKi:
O=C1CCCN1CC#CCN1CCCC1 :: 7.22
C[C@H]1CCN(CC#CCN2CCCC2)C1=O :: 5.54

Given CC(=O)N(C)C(C)C#CCN1CCCC1 (configuration not stated) , respond with its pKi.
7.10

Given "C[C@H]1CC(=O)N(CC#CCN(C)C)C1" , respond with its pKi.
3.82

Given "O=C1CCCN1CC#CCN1CCCCC1" , respond with its pKi.
6.92

###

# assay name: Ratio of [3H]QNB+GppNHp/[3H]-PZ was determined
measured endpoint: Ratio

Sample records with Ratio:
C[C@@H]1CC(=O)N(CC#CCN2CCCC2)C1 :: 21
C[C@@H]1CC(=O)N(CC#CC[N+](C)(C)C)C1 :: 5.7
O=C1CCCN1CC#CCN1CCCCC1 :: 2.7

Now for the molecule whose Ratio we want.
Given "C[C@H]1CCN(CC#CCN2CCCC2)C1=O" , respond with its Ratio.
1.5

###

# assayed target: Muscarinic acetylcholine receptor M2 (Rattus norvegicus, UniProt P10980)
# assay name: Binding affinity at [3H]QNB and GppNHp radiolabeled muscarinic M2 receptor in rat heart.
Measured pKi, listed per entry for reference.
Scale for pKi: -log10 of concentration given in mol/L; no unit attached.

Sample records with pKi:
C[C@H]1CC(=O)N(CC#CCN2CCCC2)C1 :: 5.22
C[N+](C)(C)CC#CCN1CCCC1=O [OXOTREMORINE METHIODIDE] :: 5.82
C[C@@H]1CCN(CC#CCN(C)C)C1=O :: 5.03

Given "CN(C)CC#CCN1CCCC1=O" , respond with its pKi.
5.80

Given CC1CCN(CC#CCN2CCCC2)C1=O (configuration not stated) , respond with its pKi.
5.96

###

Measured Ratio, listed per entry for reference.
# assayed target: Muscarinic acetylcholine receptor M2 (Rattus norvegicus) (UniProt P10980)
# assay name: Relative [3H]QNB and [3H]-CD binding to muscarinic M2 receptor

Sample records with Ratio:
CC1CCN(CC#CCN2CCCC2)C1=O (stereo not given) :: 48
O=C1CCCN1CC#CCN1CCCCC1 :: 2.2
C[C@H]1CC(=O)N(CC#CCN2CCCC2)C1 :: 1.6
C[C@@H]1CC(=O)N(CC#CCN2CCCC2)C1 :: 1.9
C[C@@H]1CCN(CC#CCN2CCCC2)C1=O :: 19

Given CC1CCN(CC#CCN(C)C)C1=O (stereo not given) , respond with its Ratio.
85

Given "C[C@@H]1CCN(CC#CCN(C)C)C1=O" , respond with its Ratio.
125

###

# assayed target: Muscarinic acetylcholine receptor M2 (Rattus norvegicus)
# assay name: Binding affinity at [3H]QNB radiolabeled muscarinic M2 receptor in rat cortex.
# Assay type: tissue-based
measured endpoint: pKi
Scale for pKi: -log10 of concentration given in mol/L; no unit attached.

Sample records with pKi:
CC1CCN(CC#CCN(C)C)C1=O (stereo not given) :: 4.66
C[C@@H]1CC(=O)N(CC#CCN2CCCC2)C1 :: 5.33

Write down the reported pKi (system: Muscarinic acetylcholine receptor M2 (Rattus norvegicus)) of "C[C@@H]1CCN(CC#CCN(C)C)C1=O"
5.05

Write down the reported pKi (system: Muscarinic acetylcholine receptor M2 (Rattus norvegicus)) of C[N+](C)(C)CC#CCN1CCCC1=O [OXOTREMORINE METHIODIDE]
6.04

Write down the reported pKi (system: Muscarinic acetylcholine receptor M2 (Rattus norvegicus)) of "C[C@@H]1CCN(CC#CCN2CCCC2)C1=O"
6.37

Write down the reported pKi (system: Muscarinic acetylcholine receptor M2 (Rattus norvegicus)) of "C[C@H]1CC(=O)N(CC#CCN2CCCC2)C1"
5.64

Write down the reported pKi (system: Muscarinic acetylcholine receptor M2 (Rattus norvegicus)) of CC1CCN(CC#CCN2CCCC2)C1=O (stereo not given)
6.15

Write down the reported pKi (system: Muscarinic acetylcholine receptor M2 (Rattus norvegicus)) of "CN(C)CC#CCN1CCCC1=O"
5.54

###

# assayed target: Muscarinic acetylcholine receptor M2 (Rattus norvegicus)
# Sequence (P10980 whole entry): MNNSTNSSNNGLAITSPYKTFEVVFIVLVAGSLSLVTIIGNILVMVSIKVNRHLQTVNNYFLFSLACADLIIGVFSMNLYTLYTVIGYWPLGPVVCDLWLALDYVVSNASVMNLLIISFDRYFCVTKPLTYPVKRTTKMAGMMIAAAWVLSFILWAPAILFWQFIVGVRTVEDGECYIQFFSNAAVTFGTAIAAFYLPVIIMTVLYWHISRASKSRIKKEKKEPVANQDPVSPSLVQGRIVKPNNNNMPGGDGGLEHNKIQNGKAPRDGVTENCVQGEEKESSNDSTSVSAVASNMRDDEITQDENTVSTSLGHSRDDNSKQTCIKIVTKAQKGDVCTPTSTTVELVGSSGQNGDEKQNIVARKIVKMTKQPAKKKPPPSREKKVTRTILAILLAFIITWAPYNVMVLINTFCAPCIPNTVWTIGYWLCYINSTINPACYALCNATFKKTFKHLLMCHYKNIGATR
# assay name: Binding affinity at [3H]CD radiolabeled muscarinic M2 receptor in rat cortex.
# Format: tissue-based
measured endpoint: pKi
Scale for pKi: -log10 of concentration given in mol/L; no unit attached.

Write down the reported pKi (system: Muscarinic acetylcholine receptor M2 (Rattus norvegicus)) of "C[C@@H]1CC(=O)N(CC#CCN2CCCC2)C1"
5.60

Write down the reported pKi (system: Muscarinic acetylcholine receptor M2 (Rattus norvegicus)) of "C[C@H]1CCN(CC#CCN(C)C)C1=O"
6.20

Write down the reported pKi (system: Muscarinic acetylcholine receptor M2 (Rattus norvegicus)) of "C[C@H]1CC(=O)N(CC#CCN2CCCC2)C1"
5.82

Write down the reported pKi (system: Muscarinic acetylcholine receptor M2 (Rattus norvegicus)) of "C[C@H]1CC(=O)N(CC#CC[N+](C)(C)C)C1"
6.35

Write down the reported pKi (system: Muscarinic acetylcholine receptor M2 (Rattus norvegicus)) of CC1CCN(CC#CCN2CCCC2)C1=O (configuration not stated)
7.82

Write down the reported pKi (system: Muscarinic acetylcholine receptor M2 (Rattus norvegicus)) of CC1CCN(CC#CCN(C)C)C1=O (configuration not stated)
6.59

Write down the reported pKi (system: Muscarinic acetylcholine receptor M2 (Rattus norvegicus)) of "C[C@@H]1CCN(CC#CCN2CCCC2)C1=O"
7.64

Write down the reported pKi (system: Muscarinic acetylcholine receptor M2 (Rattus norvegicus)) of "C[C@@H]1CCN(CC#CCN(C)C)C1=O"
7.15

Write down the reported pKi (system: Muscarinic acetylcholine receptor M2 (Rattus norvegicus)) of "C[C@@H]1CC(=O)N(CC#CC[N+](C)(C)C)C1"
6.01

Write down the reported pKi (system: Muscarinic acetylcholine receptor M2 (Rattus norvegicus)) of C[N+](C)(C)CC#CCN1CCCC1=O [OXOTREMORINE METHIODIDE]
9.11

Write down the reported pKi (system: Muscarinic acetylcholine receptor M2 (Rattus norvegicus)) of O=C1CCCN1CC#CCN1CCCC1 [OXOTREMORINE]
9.30

Write down the reported pKi (system: Muscarinic acetylcholine receptor M2 (Rattus norvegicus)) of "C[C@H]1CCN(CC#CCN2CCCC2)C1=O"
7.26

Write down the reported pKi (system: Muscarinic acetylcholine receptor M2 (Rattus norvegicus)) of CC(=O)N(C)C(C)C#CCN1CCCC1 (configuration not stated)
8.40

Write down the reported pKi (system: Muscarinic acetylcholine receptor M2 (Rattus norvegicus)) of "CN(C)CC#CCN1CCCC1=O"
8.20

Write down the reported pKi (system: Muscarinic acetylcholine receptor M2 (Rattus norvegicus)) of "O=C1CCCN1CC#CCN1CCCCC1"
7.25

###

Measured pKi, listed per entry for reference.
# assayed target: UniProt:P10980
# assay name: Binding affinity at [3H]QNB radiolabeled muscarinic M2 receptor in rat heart.
Scale for pKi: -log10 of concentration given in mol/L; no unit attached.

Sample records with pKi:
C[C@H]1CC(=O)N(CC#CC[N+](C)(C)C)C1 :: 5.72
O=C1CCCN1CC#CCN1CCCC1 :: 8.30
CC1CCN(CC#CCN2CCCC2)C1=O (configuration not stated) :: 7.10
C[N+](C)(C)CC#CCN1CCCC1=O [OXOTREMORINE METHIODIDE] :: 7.22
C[C@H]1CCN(CC#CCN(C)C)C1=O :: 4.68

Write down the reported pKi (system: UniProt:P10980) of CC(=O)N(C)C(C)C#CCN1CCCC1 (configuration not stated)
7.15

###

# assayed target: Muscarinic acetylcholine receptor M1 (Rattus norvegicus)
# Sequence (P08482 whole entry): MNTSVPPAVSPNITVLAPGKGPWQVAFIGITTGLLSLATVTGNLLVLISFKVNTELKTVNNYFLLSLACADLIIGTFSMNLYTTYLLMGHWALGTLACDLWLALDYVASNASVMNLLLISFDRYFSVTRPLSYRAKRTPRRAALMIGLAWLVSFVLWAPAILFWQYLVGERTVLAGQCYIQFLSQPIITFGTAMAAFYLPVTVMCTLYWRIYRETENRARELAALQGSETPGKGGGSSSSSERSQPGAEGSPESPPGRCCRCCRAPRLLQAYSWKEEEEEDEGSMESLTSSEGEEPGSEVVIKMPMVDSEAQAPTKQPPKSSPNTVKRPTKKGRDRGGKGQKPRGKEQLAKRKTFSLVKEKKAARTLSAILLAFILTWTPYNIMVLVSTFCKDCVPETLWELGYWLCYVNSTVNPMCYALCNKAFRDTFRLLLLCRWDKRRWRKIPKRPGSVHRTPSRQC
Measured pKi, listed per entry for reference.
Scale for pKi: -log10 of concentration given in mol/L; no unit attached.

Sample records with pKi:
O=C1CCCN1CC#CCN1CCCCC1 :: 6.89
C[C@H]1CCN(CC#CCN(C)C)C1=O :: 2.97
C[C@H]1CCN(CC#CCN2CCCC2)C1=O :: 5.66
C[N+](C)(C)CC#CCN1CCCC1=O [OXOTREMORINE METHIODIDE] :: 5.92
C[C@@H]1CCN(CC#CCN(C)C)C1=O :: 5.17

Given "C[C@H]1CC(=O)N(CC#CCN2CCCC2)C1" , respond with its pKi.
6.29

Given CC1CCN(CC#CCN2CCCC2)C1=O (configuration not stated) , respond with its pKi.
6.54

Given "CN(C)CC#CCN1CCCC1=O" , respond with its pKi.
5.17
